System: SK-MEL-28
Protocol notes: Tested in vitro for anticancer activity against SK-MEL-28 cells
Assay type: functional, cell-based
Test settings: Homo sapiens
Measured property: log10 of IC50 (log10 of the value in µM)
Recorded IC50 (log10, µM)

Worked set:
{"columns": ["Molecule", "Quantitative result"],
 "data": [
  ["O=c1[nH]c(=O)n([C@@H]2C=C[C@H](CO)O2)cc1F", 0.87],
  ["CC(=O)Nc1nc(=O)n([C@H]2C=C[C@@H](CO)O2)cc1F", 2.03],
  ["C[C@@H]1C[C@@H]([C@H](O)CC2CC(=O)NC(=O)C2)C(=O)[C@@H](C)C1 [CYCLOHEXIMIDE]", 0.00],
  ["O=c1[nH]c(=O)n([C@@H]2C=C[C@@H](CO)O2)cc1F", 0.99],
  ["O=c1[nH]cc(F)c(=O)[nH]1 [FLUOROURACIL]", 0.65]
]}

We now examine a further molecule.
What value of log10 of IC50 has been recorded for this entry: O=C1NC(O)C(F)=CN1[C@H]1C=C[C@@H](CO)O1 (stereo not given in full)
1.34
